The origin of these recorded values is patent US20220213138A1.

Settings: crosslinker bond; 21-membered ring; OPA; PBS pH 7.4/DMSO
ASSAY READOUT: ring closure, conversion (%)
Report only the number, with the unit % understood.

Data request: Name the reported ring closure, conversion value associated with the substance Ac-KAAACH-CONH2
Data returned: 98

Data request: cyclo-(CNSTKNLTFAMRSSGDYGEV) , same question.
Data returned: 89.2

Data request: Ac-ENPECILDKHVQRVM-CONH2 , same question.
Data returned: 93.6

Data request: Ac-GAQCAFLK-CONH2 , same question.
Data returned: 83.3

----------
Settings: crosslinker bond; 21-membered ring; OPA; then DMAC; PBS pH 7.4/DMSO; 2 steps
For each of the substances below, state its ring closure, yield after HPLC.
Report only the number, with the unit % understood.

Data request: Name the reported ring closure, yield after HPLC value associated with the substance cyclo-(Ac-GAQCAFLK-CONH2)-DMAC
Data returned: 38

Data request: bicyclo-(CNSTKNLTFAMRSSGDYGEV)-DMAC , same question.
Data returned: 69

Data request: cyclo-(Ac-ENPECILDKHVQRVM-CONH2)-DMAC , same question.
Data returned: 35

Data request: cyclo-(Ac-KAAACH-CONH2)-DMAC , same question.
Data returned: 47.3
